- SYSTEM: rNaV1.4 expressed in CHO cells (Rattus norvegicus)
- Construct: expressed in transfected cells; host or cells: CHO cells
- Sequence (P15390 whole entry): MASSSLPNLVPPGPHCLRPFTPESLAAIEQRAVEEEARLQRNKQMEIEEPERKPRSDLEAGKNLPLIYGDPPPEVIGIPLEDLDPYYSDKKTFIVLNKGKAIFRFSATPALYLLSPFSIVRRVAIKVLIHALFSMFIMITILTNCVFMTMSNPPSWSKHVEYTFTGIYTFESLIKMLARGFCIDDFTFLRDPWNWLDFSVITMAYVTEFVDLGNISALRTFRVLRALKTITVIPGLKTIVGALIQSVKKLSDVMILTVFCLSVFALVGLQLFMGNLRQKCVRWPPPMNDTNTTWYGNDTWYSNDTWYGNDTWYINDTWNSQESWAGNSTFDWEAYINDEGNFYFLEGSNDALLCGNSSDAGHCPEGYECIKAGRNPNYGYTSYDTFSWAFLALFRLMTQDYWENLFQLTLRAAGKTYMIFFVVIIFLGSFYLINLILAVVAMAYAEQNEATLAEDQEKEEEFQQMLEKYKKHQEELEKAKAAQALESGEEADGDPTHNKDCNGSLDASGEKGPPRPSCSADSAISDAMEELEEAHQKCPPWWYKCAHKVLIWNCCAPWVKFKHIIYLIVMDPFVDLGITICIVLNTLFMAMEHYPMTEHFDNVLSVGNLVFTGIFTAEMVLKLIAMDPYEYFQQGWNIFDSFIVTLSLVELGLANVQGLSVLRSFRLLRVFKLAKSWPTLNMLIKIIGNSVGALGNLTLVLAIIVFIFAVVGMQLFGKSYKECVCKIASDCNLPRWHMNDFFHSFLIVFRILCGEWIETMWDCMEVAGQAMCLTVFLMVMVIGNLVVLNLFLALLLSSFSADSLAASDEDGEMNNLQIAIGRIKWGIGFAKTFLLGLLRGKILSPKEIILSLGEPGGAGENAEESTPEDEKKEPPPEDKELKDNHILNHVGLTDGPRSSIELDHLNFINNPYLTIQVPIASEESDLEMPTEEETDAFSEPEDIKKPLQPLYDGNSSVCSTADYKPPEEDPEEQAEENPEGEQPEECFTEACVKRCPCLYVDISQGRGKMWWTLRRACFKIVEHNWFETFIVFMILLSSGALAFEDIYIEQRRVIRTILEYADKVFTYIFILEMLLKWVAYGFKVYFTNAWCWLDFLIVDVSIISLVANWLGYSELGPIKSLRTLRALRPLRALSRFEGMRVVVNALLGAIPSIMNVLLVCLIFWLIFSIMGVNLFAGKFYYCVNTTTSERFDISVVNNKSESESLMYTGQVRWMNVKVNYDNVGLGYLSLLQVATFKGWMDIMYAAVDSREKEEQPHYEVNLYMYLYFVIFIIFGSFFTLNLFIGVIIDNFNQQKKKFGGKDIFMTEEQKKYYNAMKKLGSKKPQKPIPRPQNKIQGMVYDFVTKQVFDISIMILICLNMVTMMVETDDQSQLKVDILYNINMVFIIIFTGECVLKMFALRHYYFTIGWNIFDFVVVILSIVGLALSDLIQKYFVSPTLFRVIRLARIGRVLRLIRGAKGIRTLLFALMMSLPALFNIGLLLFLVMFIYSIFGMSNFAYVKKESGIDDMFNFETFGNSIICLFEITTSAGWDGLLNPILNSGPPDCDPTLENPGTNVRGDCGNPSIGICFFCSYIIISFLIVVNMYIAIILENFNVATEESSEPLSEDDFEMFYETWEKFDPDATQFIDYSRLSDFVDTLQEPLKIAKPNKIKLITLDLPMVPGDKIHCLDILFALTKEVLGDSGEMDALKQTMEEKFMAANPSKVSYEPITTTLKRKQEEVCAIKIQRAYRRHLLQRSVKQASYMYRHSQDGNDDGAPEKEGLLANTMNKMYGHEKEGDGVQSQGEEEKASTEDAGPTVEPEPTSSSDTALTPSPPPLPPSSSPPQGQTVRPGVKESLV
- ASSAY REMARKS: Na+ current block at steady state, whole-cell patch clamp with pulse trains
- Format: cell-based
- EXPERIMENTAL CONTEXT: 20 μM
RECORDED ENDPOINT: peak current blocked at steady state

Form: item CCN1CC2(COC)C3C(OC)C4C1C3(C1C[C@@]3(O)[C@H](OC(=O)C5CCCCC5)[C@@H]1[C@]4(OC(C)=O)[C@@H](O)[C@@H]3OC)[C@@H](OC)C[C@H]2O (stereo partly shown) [4.8d] ; test system rNaV1.4 expressed in CHO cells (Rattus norvegicus); peak current blocked at steady state: 85%

Entry CCN1CC2(COC)C3[C@H](OC)C4C1C3(C1C[C@@]3(O)[C@H](OC(=O)c5cc6ccccc6oc5=O)C1[C@]4(OC(C)=O)[C@@H](O)[C@@H]3OC)[C@@H](OC)C[C@H]2O (stereo partly shown) [4.8g] , rNaV1.4 expressed in CHO cells (Rattus norvegicus) data, peak current blocked at steady state value: 21%

Observed peak current blocked at steady state on rNaV1.4 expressed in CHO cells (Rattus norvegicus), entry CCN1CC2(COC)C3C(OC)C4C1C3(C1C[C@@]3(O)[C@H](OC(=O)c5ccccc5)[C@@H]1[C@]4(OC(C)=O)[C@@H](O)[C@@H]3OC)[C@@H](OC)C[C@H]2O (stereo partly shown) [Aconitine, aconitine] , equals 81%

Values were extracted from patent US9085536B2.
